These entries and their values trace back to ChEMBL document CHEMBL4219040.

# assayedTarget: Glycine receptor subunit alpha-3 (Homo sapiens, UniProt O75311)
# Sequence (O75311 whole entry): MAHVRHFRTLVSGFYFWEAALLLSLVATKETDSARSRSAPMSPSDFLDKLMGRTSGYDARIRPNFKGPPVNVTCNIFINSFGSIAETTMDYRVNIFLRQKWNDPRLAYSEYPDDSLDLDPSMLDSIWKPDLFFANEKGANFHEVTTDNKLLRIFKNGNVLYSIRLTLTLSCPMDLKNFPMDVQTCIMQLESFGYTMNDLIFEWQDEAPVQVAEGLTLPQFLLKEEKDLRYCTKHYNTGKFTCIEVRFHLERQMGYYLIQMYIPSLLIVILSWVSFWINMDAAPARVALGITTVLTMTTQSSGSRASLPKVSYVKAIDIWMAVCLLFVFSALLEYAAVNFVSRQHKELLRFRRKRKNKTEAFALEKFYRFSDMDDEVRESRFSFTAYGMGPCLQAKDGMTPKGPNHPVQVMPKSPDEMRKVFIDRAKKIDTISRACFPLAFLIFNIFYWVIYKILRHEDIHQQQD
# measurementProtocol: Positive allosteric modulation of human GlyRalpha3 expressed in HEK293 cells assessed as potentiation of glycine-induced current flux by electrophysiology method
observedProperty: pEC50
Field pEC50 (float): negative decimal logarithm of the concentration in molar.

CC1=C[C@@H](/C=C(\C)CCCC2=CCN(CC(=O)O)C2=O)[C@]2(OC(=O)C(C)(O)C2=O)[C@@H]2[C@@H](C)CC[C@@H]12 (stereo partly specified) has a reported pEC50 of 5.07

* * *

# assayedTarget: Glycine receptor alpha-3/beta (Homo sapiens, UniProt O75311+P48167)
# measurementProtocol: Positive allosteric modulation of human GlyRalpha3beta expressed in CHO cells assessed as potentiation of EC5 to EC10 glycine-induced response at 10 uM by manual patch clamp assay
# Type: cell-based
observedProperty: Activity
Could you kindly put the unit after your number?

CN1c2ncccc2N(Cc2ccccc2C(F)(F)F)C(=O)[C@H]1Cc1ccc(C(N)=O)cc1    303%
O=C(O)c1ccc(C[C@@H]2Sc3ccccc3N(Cc3ccccc3C(F)(F)F)C2=O)cc1F    259%
CC(C)(C)c1cccc(C(C)(C)C)c1O    309%
CN1C(=O)[C@@H]2CN(S(=O)(=O)c3ccc4c(c3)OCO4)C[C@@H]2c2cnccc21    1350%
CC(C)(C)c1cc(C(C)(C)C)c(O)c(C(=O)O)c1O    2060%
O=C(O)c1ccc(C[C@H]2Sc3c(F)cccc3N(Cc3ccccc3C(F)(F)F)C2=O)cc1    396%

`O=S(=O)(NCCOc1cccc2cccnc12)c1ccccc1` has a reported Activity of 2710%

`C#Cc1cc(C(=O)OC)cc(-c2ncco2)c1` has a reported Activity of 255%

`O=[N+]([O-])c1cccc(S(=O)(=O)NCCOc2cccc3cccnc23)c1` has a reported Activity of 136%
